Source: paper PMC5607274

# study.system: human recombinant Yes [a.a. 2–543 (end)] (Homo sapiens)
# Construct: human recombinant Yes [a.a; 2–543 (end)]; purchased BPS Bioscience 40488
# Sequence (P07947 2-543): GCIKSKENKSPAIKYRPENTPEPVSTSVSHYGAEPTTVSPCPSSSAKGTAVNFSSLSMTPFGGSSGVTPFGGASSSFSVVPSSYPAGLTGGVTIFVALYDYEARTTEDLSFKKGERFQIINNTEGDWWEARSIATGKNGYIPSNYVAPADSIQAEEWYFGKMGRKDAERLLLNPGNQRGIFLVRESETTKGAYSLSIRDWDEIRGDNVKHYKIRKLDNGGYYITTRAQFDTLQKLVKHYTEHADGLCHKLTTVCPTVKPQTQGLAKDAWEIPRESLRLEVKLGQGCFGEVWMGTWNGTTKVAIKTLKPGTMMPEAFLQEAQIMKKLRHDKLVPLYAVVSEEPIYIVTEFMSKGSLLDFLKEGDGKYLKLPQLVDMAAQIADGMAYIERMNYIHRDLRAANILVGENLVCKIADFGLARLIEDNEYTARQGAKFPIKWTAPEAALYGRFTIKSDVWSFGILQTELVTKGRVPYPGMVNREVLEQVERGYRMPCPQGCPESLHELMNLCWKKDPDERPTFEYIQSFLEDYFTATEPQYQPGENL
# run.description: ADP-Glo kinase assay, inhibition rates of Yes phosphorylation activity (first and second screening)
# Format: biochemical
# test.parameters: first screening; mean of n = 4 wells; 10 μmol L−1 compound
property.label: First screening IR (inhibition rate) (%)
Answer format: numeric, % implied, no suffix.

Sample CCn1nc(NCc2cn[nH]c2-c2ccc(C)o2)cc1C1CC1 — what was its First screening IR (inhibition rate)? 13

Note, next up: Cc1cccc(/C=N/Nc2ncnc3sc(C)c(C)c23)c1 3

Note, next up: COC(=O)c1cc(-c2ccc(OC)c(OC)c2)nc2c1c(C)nn2C1CCS(=O)(=O)C1 (stereo not drawn) 2

Note, next up: CN(Cc1ccccc1Cl)S(=O)(=O)c1ccccc1S(C)(=O)=O -2

Note, next up: COc1cc(NC(=O)c2ccccc2)c(OC)cc1NC(=O)COc1ccc(-c2nnco2)cc1 46

Note, next up: O=C(Nc1cc(Cl)cc(Br)c1OC(F)F)C(=O)N1CCCSCC1 13
